Molecular target: T1, mouse MAdCAM expressed on cells (mouse, UniProt Q61826 22-405)
T1 construct: whole, on cells
T1 sequence (looked up): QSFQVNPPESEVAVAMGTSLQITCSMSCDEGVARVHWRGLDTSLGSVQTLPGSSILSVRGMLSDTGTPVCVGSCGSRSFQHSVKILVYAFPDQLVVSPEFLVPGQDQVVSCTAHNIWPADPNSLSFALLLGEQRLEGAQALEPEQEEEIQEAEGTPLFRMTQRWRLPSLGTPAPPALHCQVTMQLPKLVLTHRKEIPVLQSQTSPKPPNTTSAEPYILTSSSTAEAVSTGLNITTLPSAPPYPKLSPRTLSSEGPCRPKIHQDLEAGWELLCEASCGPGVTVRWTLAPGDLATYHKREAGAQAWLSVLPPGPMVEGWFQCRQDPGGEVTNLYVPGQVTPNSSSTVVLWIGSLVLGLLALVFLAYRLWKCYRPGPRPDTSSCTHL
Experiment: cell binding
ENDPOINT_LABEL: binding result

{"BINDER": "MAdCAM Antibody Table 1 Clone 14 (scFv) scFv: QVQLVQSGAEVKKPGSSVKVSCKASGYTFTDYHIHWVRQAPGQGLEWMGGIVPRSGSTTYAQKFQGRVTITADESTSTAYMELSSLRSEDTAVYYCAKDESSGWYYFDYWGQGTLVTVSSGGGGSGGGGSGGGGSGGGGSDIVMTQSPLSLPVTPGEPASISCRSSQSLLHSNGYNYLDWYLQKPGQSPQLLIYSAYNRASGVPDRFSGSGSGTDFTLKISRVEAEDVGVYYCMQALQTPLTFGQGTKVEIK", "ENDPOINT_LABEL": "binding result", "OBSERVED_MEASUREMENT": "no binding"}
{"BINDER": "MAdCAM Antibody Table 1 Clone 51 (scFv) scFv: EVQLLESGGGLVQPGGSLRLSCAASGFTFNNYGMNWVRQAPGKGLEWVSRINSDGSSTSYADSVKGRFTISRDNSKNTLYLQMNSLRAEDTAVYYCARGAYYYYYMDVWGQGTLVTVSSGGGGSGGGGSGGGGSGGGGSEIVMTQSPATLSVSPGERATLSCRASQSVSGSYLAWYQQKPGQAPRLLIYATSSRASGIPARFSGSGSGTEFTLTISSLQSEDFAVYYCQQYYSGLTFGQGTKVEIK", "ENDPOINT_LABEL": "binding result", "OBSERVED_MEASUREMENT": "no binding"}
